# Species on record: Rattus norvegicus
# measurementProtocol: Effective dose of compound required for in vitro effect on growth hormone release was measured in rat pituitary cell assay
# Type: functional, Pituitary gland cell
# assayContext: read-out: ED50 (the source's name)
measurementName: EC50 (µM)
Numbers only; they are read as µM.

CC(C)(N)CC(=O)N[C@@H]1C[S+]([O-])c2ccccc2N(Cc2ccc(-c3ccccc3-c3nn[nH]n3)cc2)C1=O (stereo in doubt; 22a) has a reported EC50 of 4
